Assay: glucagon-like peptide 1 release enhancers, primary assay, NCI-H716 cell line, NPC library (AID 1117341); further: reference of the scale not given here
Settings: NCI-H716 cells, at 10 µM, stronger effect = higher value
So I've got a bunch of compounds here, and I need their GLP1 secretion stimulation values.
Give bare numbers, in %.

COMPOUND	GLP1 secretion stimulation, %
NCCCNCCSP(=O)(O)O	-1.2
CCOC(=O)c1ccc(O)cc1	2.1
Cc1ccc(C(=O)c2cc(O)c(O)c([N+](=O)[O-])c2)cc1	-3.6
O=C(O)COCCN1CCN(C(c2ccccc2)c2ccc(Cl)cc2)CC1 (stereo unspecified)	1.4
NC1[C@H]2CN(c3nc4c(cc3F)c(=O)c(C(=O)O)cn4-c3ccc(F)cc3F)C[C@@H]12 (stereo partly specified)	-0.1

List reported GLP1 secretion stimulation for each of these compounds:
1. CCOc1ccccc1OCCN[C@H](C)Cc1ccc(OC)c(S(N)(=O)=O)c1
2. C[S+](CC[C@H](N)C(=O)O)C[C@H]1O[C@@H](n2cnc3c(N)ncnc32)[C@H](O)[C@H]1O (stereo partly specified)
3. Cc1ncc(C[n+]2csc(CCO)c2C)c(N)n1
4. O=C(O)C1(C(=O)O)CCC1.[NH2-].[NH2-].[Pt+2]

[out]
[2.3, -0.4, -1.3, 3]

Working through the 2 compounds below one at a time, give GLP1 secretion stimulation for each.
1. COC(=O)N[C@H](C(=O)N[C@@H](Cc1ccccc1)[C@@H](O)CN(Cc1ccc(-c2ccccn2)cc1)NC(=O)[C@@H](NC(=O)OC)C(C)(C)C)C(C)(C)C
2. CCCn1cnc2c1c(=O)n(CCCCC(C)=O)c(=O)n2C

[out]
1: -0.7; 2: -4.5

* * *

Assay: liver-stage malaria parasite growth inhibition, primary screen, cell-based, HepG2, luciferase luminescence, HepG2 viability (AID 624349);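 further: 100% = mean of DMSO negative control wells on the same plate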
Settings: P. berghei liver stage in HepG2, luciferase luminescence, concentration not given here; measured here: HepG2 viability without parasites
RECORDED_ENDPOINT: viability (%)
Answers are plain numbers, in %.

COMPOUND	VAL
O=P(O)(O)C(Cl)(Cl)P(=O)(O)O	100
CCOC(=O)CCC(=O)O[C@H]1[C@H](O[C@@H]2[C@@H](C)[C@H](O[C@H]3C[C@@](C)(OC)[C@@H](O)[C@H](C)O3)[C@@H](C)C(=O)O[C@H](CC)[C@@](C)(O)[C@H](O)[C@@H](C)C(=O)[C@H](C)C[C@@]2(C)O)O[C@H](C)C[C@@H]1N(C)C	170
O=C1[O][Bi][O]c2ccccc21	103
COc1ccc(-c2coc3cc(O)ccc3c2=O)cc1	88.5
Cc1cc2c(OCC(CNC(C)(C)C)OC(=O)c3ccccc3)cccc2[nH]1 (stereo unspecified)	114
NC(N)=NCCCCN=C(N)N	108
C=C1CC[C@H](O)C/C1=C/C=C1\CCC[C@]2(C)[C@@H]([C@H](C)/C=C/[C@H](C)C(C)C)CC[C@@H]12	130
C#C[C@]1(OC(C)=O)CC[C@H]2[C@@H]3CCC4=C[C@@H](OC(C)=O)CC[C@@H]4[C@H]3CC[C@@]21C	93.8
CS(=O)(=O)CCNCc1ccc(-c2ccc3ncnc(Nc4ccc(OCc5cccc(F)c5)c(Cl)c4)c3c2)o1	101
CC(=O)N(CC(O)CN(C(C)=O)c1c(I)c(C(=O)NCC(O)CO)c(I)c(C(=O)NCC(O)CO)c1I)c1c(I)c(C(=O)NCC(O)CO)c(I)c(C(=O)NCC(O)CO)c1I (stereo unspecified)	90.6

For each listed entry, give its viability.
1. NCCSSCCN
2. CCOC(=O)/C=C(C)/C=C/C=C(C)/C=C/c1c(C)cc(OC)c(C)c1C
3. OCCc1ccccc1
4. CNC1C(O)C(OC2C(N)CC(N)C(OC3OC(CN)=CCC3N)C2O)OCC1(C)O (stereo unspecified)
5. NC(=O)c1cc[n+](CC2=C(C(=O)[O-])N3C(=O)[C@@H](NC(=O)Cc4cccs4)[C@H]3SC2)cc1

[out]
1: 85.4; 2: 74; 3: 121; 4: 80.5; 5: 73.4

Memo: O=C(O)c1cc2ccccc2[nH]1 , reported viability: 75.3
